I'd be grateful if you could share measured self-cleavage for these entries.
B1: LINE1-mini (parent)
chain: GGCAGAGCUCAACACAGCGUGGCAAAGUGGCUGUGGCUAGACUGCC

variants of: B1; test: self-cleavage, relative activity (ratio to wild type); higher = more cleavage; in vitro, sequencing; the parent is a self-cleaving ribozyme
Numbers only.

Below: 4 variants and their reported self-cleavage.
VARIANT_KEY | READOUT_NUMBER
A16U G35C | 0.07
A26C G36U | 0.07
G36C C42G | 0.07
G5C C8G | 0.07

Report self-cleavage for G33A G40A please.
0.07
